Values were extracted from patent US9833497B2.

System: Klebsiella pneumonia
Assay: MIC against Gram-negative bacteria: Klebsiella pneumonia
Format: cell-based
Conditions: 96-well plate, 5×10^5 CFU/mL, 37° C., 10 h
Overview of reported MIC K. pneumonia across a group of substances:
Kindly provide the numeric value in µg/mL only, without the unit symbol.

Completed entries (count: 3):
(Q) Notebook entry, Klebsiella pneumonia assay: MIC K. pneumonia of PRT625 (CNCSGRSEECTFDRELFRSTGHGGRCHHCRDHTAGPHCERCQENFYHWDPRMPCQP; listed as Homo sapiens) = ?
(A) 25

(Q) Notebook entry, Klebsiella pneumonia assay: MIC K. pneumonia of PRT706 (EVNHCSNYCQNGGTCVPSVLGRPTCSCALGFTGPNCG; listed as Homo sapiens) = ?
(A) 12.5

(Q) Notebook entry, Klebsiella pneumonia assay: MIC K. pneumonia of PRT595 (CSCHASGVSPMECPPGGGACLCDPVTGACPCLPNVTGLACDRCADGYWNLVPGRGCQS; listed as Homo sapiens) = ?
(A) 50

Pending substance:
(Q) Notebook entry, Klebsiella pneumonia assay: MIC K. pneumonia of PRT643 (RVVICHLPCMNGGQCSSRDKCQCPPNFTGKLCQ; listed as Homo sapiens) = ?
(A) 25

====

Tested on: Moraxella catarrhalis
Assay: MIC against Gram-negative bacteria: Moraxella catarrhalis
Format: cell-based
Settings: M. catarrhalis; 10 h cultivation at 37° C.; 5×10^5 CFU/mL
Overview of reported MIC (μg/mL) M. catarrhalis across a group of substances:
Kindly provide the numeric value in µg/mL only, without the unit symbol.

Completed entries (count: 3):
(Q) Record request: MIC (μg/mL) M. catarrhalis value, item PRT245 (DIDECASGKVICPYNRRCVNTFGSYYCKCHIGFELQYIS; listed as Homo sapiens)
(A) 12.5

(Q) Record request: MIC (μg/mL) M. catarrhalis value, item PRT205 (SAHVCSQQCSGHGVCDSRNKCHCSPGYKPPNCQ; listed as Homo sapiens)
(A) 25

(Q) Record request: MIC (μg/mL) M. catarrhalis value, item PRT167 (TPNPCENDGVCTDIGGDFRCRCPAGFIDKTC; listed as Homo sapiens)
(A) 12.5

---
(Q) Record request: MIC (μg/mL) M. catarrhalis value, item PRT264 (SGQCLCRSGFAGTACELCAPGAFGPHCQAC; listed as Homo sapiens)
(A) 25

(Q) Record request: MIC (μg/mL) M. catarrhalis value, item PRT203 (CSPAFCNKRGICNNKHHCHCNYLWDPPNCL; listed as Homo sapiens)
(A) 25

====

Test system: Enterobacter cloacae
Assay: MIC against Gram-negative bacteria: Enterobacter cloacae
Format: cell-based
Details: E. cloacae; 10 h cultivation at 37° C.; 5×10^5 CFU/mL
Overview of reported MIC (μg/mL) E. cloacae across a group of substances:
Kindly provide the numeric value in µg/mL only, without the unit symbol.

Completed entries (count: 10):
(Q) Record request: MIC (μg/mL) E. cloacae value, item PRT232 (DIDECRQDPSTCGPNSICTNALGSYSCGCIAGFHPNPEGSQKDGNFSCQ; listed as Homo sapiens)
(A) 25

(Q) Record request: MIC (μg/mL) E. cloacae value, item PRT780 (EYSSCSRHPCQNGGTCINGRTSFTCACRHPFTGDNCT; listed as Homo sapiens)
(A) 12.5

(Q) Record request: MIC (μg/mL) E. cloacae value, item PRT848 (CQCNNRSASCDALTGACLNCQENSKGNHCEECKEGFYQSPDATKECLR; listed as Homo sapiens)
(A) 50

(Q) Record request: MIC (μg/mL) E. cloacae value, item PRT254 (PCLEGGTCILSPKGASCNCPHPYTGDRCE; listed as Homo sapiens)
(A) 12.5

(Q) Record request: MIC (μg/mL) E. cloacae value, item PRT249 (EAICAKPCLNGGVCVRPDQCECAPGWGGKHCH; listed as Homo sapiens)
(A) 25

(Q) Record request: MIC (μg/mL) E. cloacae value, item PRT745 (RQHPCAQDNGGCSHICLVKGDGTTRCSCPMHLVLLQDELSCG; listed as Homo sapiens)
(A) 50

(Q) Record request: MIC (μg/mL) E. cloacae value, item PRT268 (SFKCRCDSGFALDSEERNCTDIDE; listed as Homo sapiens)
(A) 50

(Q) Record request: MIC (μg/mL) E. cloacae value, item PRT179 (RVDRCSLQPCRNGGLCLDLGHALRCRCRAGFAGPRCE; listed as Homo sapiens)
(A) 50

(Q) Record request: MIC (μg/mL) E. cloacae value, item PRT255 (DVDECVGLQPVCPQGTTCINTGGSFQCVSPECPEG; listed as Homo sapiens)
(A) 12.5

(Q) Record request: MIC (μg/mL) E. cloacae value, item PRT209 (DVDECAQALHDCRPSQDCHNLPGSYQCTCPDGYR; listed as Homo sapiens)
(A) 12.5

---
(Q) Record request: MIC (μg/mL) E. cloacae value, item PRT818 (DCRSACNCTAGAACDAVNGSCLCPAGRRGPRCA; listed as Homo sapiens)
(A) 12.5

(Q) Record request: MIC (μg/mL) E. cloacae value, item PRT180 (DLDDCAGRACANGGTCVEGGGAHRCSCALGFGGRDCR; listed as Homo sapiens)
(A) 50

(Q) Record request: MIC (μg/mL) E. cloacae value, item PRT811 (FGKNCSFSCSCQNGGTCDSVTGACRCPPGVSGTNCE; listed as Homo sapiens)
(A) 12.5

(Q) Record request: MIC (μg/mL) E. cloacae value, item PRT754 (IQDLCAMEDHNCEQLCVNVPGSFVCQCYSGYALAEDGKRCV; listed as Homo sapiens)
(A) 12.5

(Q) Record request: MIC (μg/mL) E. cloacae value, item PRT262 (CLIHHGGCHIHAECIPTGPQQVSCSCREGYSGDGIRTC; listed as Homo sapiens)
(A) 12.5

(Q) Record request: MIC (μg/mL) E. cloacae value, item PRT218 (DINECDASNQCAQQCYNILGSFICQCNQGYELSSDRLNCE; listed as Homo sapiens)
(A) 25
